target: Cytochrome P450 3A4 (Homo sapiens)
Sequence (P08684 whole entry): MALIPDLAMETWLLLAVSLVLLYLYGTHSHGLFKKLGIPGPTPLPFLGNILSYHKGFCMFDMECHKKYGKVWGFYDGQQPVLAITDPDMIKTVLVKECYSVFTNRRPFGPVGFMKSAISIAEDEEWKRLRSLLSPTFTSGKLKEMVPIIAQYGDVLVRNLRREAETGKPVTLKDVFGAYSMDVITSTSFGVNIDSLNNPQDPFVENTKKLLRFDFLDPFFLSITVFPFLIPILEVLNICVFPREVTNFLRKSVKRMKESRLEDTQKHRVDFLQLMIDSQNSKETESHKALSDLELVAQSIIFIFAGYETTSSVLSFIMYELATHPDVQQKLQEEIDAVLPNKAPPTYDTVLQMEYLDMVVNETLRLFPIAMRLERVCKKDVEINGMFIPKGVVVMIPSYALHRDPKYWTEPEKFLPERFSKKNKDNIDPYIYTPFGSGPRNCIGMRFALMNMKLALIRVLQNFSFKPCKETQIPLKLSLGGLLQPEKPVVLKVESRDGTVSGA
pIC50: −log10 of the molar value.
Some compounds, each annotated with its measured pIC50.

CC(C)Oc1ccc(-c2ncc(CNc3ccnc(C(F)(F)F)c3)s2)cc1Cl : < 4.60

Proceed to the following item.
Ask: Consider the compound `CC(C)Oc1ccc(-c2ncc(CNc3ccnc(C#N)c3)s2)cc1Cl` and give its recorded pIC50.
Reply: < 4.60

###

assay: Lipophilicity, log D of the compound; type: physicochemical; settings: octanol/water
Some compounds, each annotated with its measured logD.
# output: bare number, no unit

Below, each entry is followed by its recorded logD result.
CC(C)Oc1ccc(-c2ncc(CNc3ccnc(C(F)(F)F)c3)s2)cc1Cl : 4.51
FC(F)(F)c1cc(NCc2nnc(-c3ccc(Oc4ccccc4)cc3)[nH]2)ccn1 : 3.96
CC(C)Oc1ccc(-c2ncc(CNc3ccnc(Cl)c3)s2)cc1 : 5.09
CC(C)Oc1ccc(-c2ncc(CNc3cc(Cl)nc(C(F)(F)F)c3)s2)cc1Cl : 5.21
FC(F)(F)c1cc(NCc2cn(-c3ccc(Oc4ccccc4)cc3)nn2)ccn1 : 4.22

Ask: Consider the compound `CC(C)Oc1ccc(-c2ncc(CNc3cc(C#N)nc(C(F)(F)F)c3)s2)cc1` and give its recorded logD.
Reply: 5.12

###

Some molecules, each annotated with its measured CC50.
assay: Cytotoxicity against human HEK293 cells assessed as viable cells; type: toxicity, cell-based; conditions: read-out: LD50 (the source's name)

CC(C)Oc1ccc(-c2ncc(CNc3ccnc(C#N)c3)s2)cc1Cl : ~50 µM

Ask: Consider the molecule `CC(C)Oc1ccc(-c2ncc(CNc3ccnc(C(F)(F)F)c3)s2)cc1Cl` and give its recorded CC50.
Reply: ~25 µM

Ask: Consider the molecule `FC(F)(F)c1cc(NCc2cn(-c3ccc(Oc4ccccc4)cc3)nn2)ccn1` and give its recorded CC50.
Reply: ~25 µM

###

molecular target: Cytochrome P450 2D6 (Homo sapiens)
Sequence (P10635 whole entry): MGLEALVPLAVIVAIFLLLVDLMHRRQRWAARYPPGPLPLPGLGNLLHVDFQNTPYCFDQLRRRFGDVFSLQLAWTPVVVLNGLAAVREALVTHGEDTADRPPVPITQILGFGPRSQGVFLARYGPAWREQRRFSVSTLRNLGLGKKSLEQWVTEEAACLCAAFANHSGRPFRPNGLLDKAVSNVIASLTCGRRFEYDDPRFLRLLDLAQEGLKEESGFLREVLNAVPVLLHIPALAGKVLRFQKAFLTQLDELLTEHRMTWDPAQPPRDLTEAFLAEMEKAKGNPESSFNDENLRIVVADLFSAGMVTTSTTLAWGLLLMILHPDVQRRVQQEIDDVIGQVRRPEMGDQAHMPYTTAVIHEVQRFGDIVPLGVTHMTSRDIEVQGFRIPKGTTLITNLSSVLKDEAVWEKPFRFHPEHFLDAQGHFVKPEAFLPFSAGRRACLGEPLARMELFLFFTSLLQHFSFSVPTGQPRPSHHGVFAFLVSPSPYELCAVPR
pIC50: −log10 of the molar value.
Readout: pIC50

CC(C)Oc1ccc(-c2ncc(CNc3ccnc(C#N)c3)s2)cc1Cl : < 4.60
FC(F)(F)c1cc(NCc2cn(-c3ccc(Oc4ccccc4)cc3)nn2)ccn1 : < 4.60

Proceed to the following item.
Ask: Consider the compound `CC(C)Oc1ccc(-c2ncc(CNc3ccnc(C(F)(F)F)c3)s2)cc1Cl` and give its recorded pIC50.
Reply: < 4.60

###

test: Kinetic aqueous solubility of the compound in PBS buffer incubated for 5 mins by turbidimetric aqueous solubility assay; format: physicochemical; settings: read-out: Kinetic_solubility
Parameter threshold = 20 µM. Response is y when solubility kinetic at 5 min meets or exceeds it, else n.

Ask: Tell me whether solubility kinetic at 5 min is at least 20 µM here: `FC(F)(F)c1cc(NCc2csc(-c3ccc(Oc4ccccc4)cc3)n2)ccn1`
Reply: n

Ask: Tell me whether solubility kinetic at 5 min is at least 20 µM here: `CC(C)Oc1ccc(-c2ncc(CNc3cc(C#N)nc(C(F)(F)F)c3)s2)cc1Cl`
Reply: y

Ask: Tell me whether solubility kinetic at 5 min is at least 20 µM here: `CC(C)Oc1ccc(-c2ncc(CNc3cc(Cl)nc(C(F)(F)F)c3)s2)cc1`
Reply: y

Ask: Tell me whether solubility kinetic at 5 min is at least 20 µM here: `FC(F)(F)c1cc(NCc2cc(-c3ccc(Oc4ccccc4)cc3)n[nH]2)ccn1`
Reply: n
